# credit: patent US20040014047A1

Test system: LIM domain kinase 1 mRNA
assayOverview: Antisense inhibition of LIM domain kinase 1 expression, dose response in A549 cells, real-time quantitative PCR
Type: cell-based, human
conditionSet: dose 6 nM, averaged from two experiments, normalized to untreated control
Strand notation (5' to 3'): a small letter for the sugar, then the base; units joined by * are phosphorothioate-linked, units joined directly phosphodiester-linked; [ ] holds rarer units or linkages, { } end groups; capitals alone tell only the bases. e = 2'-O-(2-methoxyethyl) (MOE); [5mC] = 5-methylcytosine; d = 2'-deoxy (DNA)
# reported Percent Inhibition of LIM Domain Kinase 1 mRNA Levels; entries follow
// note: answer is a bare numeric in %

Worked cases, Percent Inhibition of LIM Domain Kinase 1 mRNA Levels given:
Give the value of Percent Inhibition of LIM Domain Kinase 1 mRNA Levels reported for the following: 206214 (antisense e[5mC]*e[5mC]*eG*eG*e[5mC]*d[5mC]*dA*dG*dG*dG*d[5mC]*dA*d[5mC]*d[5mC]*dG*e[5mC]*eA*eG*e[5mC]*eT) [compound 206214]
0

Give the value of Percent Inhibition of LIM Domain Kinase 1 mRNA Levels reported for the following: 206212 (antisense eA*e[5mC]*eT*e[5mC]*e[5mC]*d[5mC]*d[5mC]*dA*dT*dT*dT*dG*dG*dT*dT*e[5mC]*e[5mC]*eT*eG*eG) [compound 206212]
0

Further cases:
Give the value of Percent Inhibition of LIM Domain Kinase 1 mRNA Levels reported for the following: 129695 (eT*eT*e[5mC]*eT*eA*d[5mC]*d[5mC]*dT*d[5mC]*dG*d[5mC]*dG*d[5mC]*dG*dA*eT*eT*eT*eA*e[5mC]) [compound 129695]
2

Give the value of Percent Inhibition of LIM Domain Kinase 1 mRNA Levels reported for the following: 114845 (eT*eA*e[5mC]*eG*eT*d[5mC]*d[5mC]*dG*dG*dA*dG*dG*d[5mC]*dG*dT*eA*e[5mC]*eG*e[5mC]*e[5mC]) [compound 114845]
0

Give the value of Percent Inhibition of LIM Domain Kinase 1 mRNA Levels reported for the following: 206219 (antisense eT*eG*e[5mC]*eA*e[5mC]*dT*dG*dA*dG*dA*dA*dA*dG*d[5mC]*dT*eT*e[5mC]*eA*e[5mC]*eA) [compound 206219]
0
